- TARGET UNDER TEST: α4β7 integrin (Homo sapiens, UniProt P13612+P26010)
- Construct: monitoring the capture of α4β7 integrin expressing cells; endogenous in cells; host or cells: RPMI8866
- METHOD NOTES: α4β7 Integrin Cell Capture Assay
- Format: cell-based
- RUN CONDITIONS: capture of α4β7 integrin expressing RPM18866 cells on MadCAM-1 extracellular domain-coated plate; Table 1
OBSERVATION TYPE: pEC50
One number for each entry, as −log10 of the molar value.

[
  {
    "SMI": "COc1cc(C[C@H](NC(=O)c2c(C)cc(N3CCOC[C@@H]3C(F)(F)F)cc2F)C(=O)O)ccc1-n1c(=O)c2ccncc2n(C)c1=O",
    "pEC50": 10.00
  },
  {
    "SMI": "CC[C@@H](Nc1cc(F)c(C(=O)N[C@@H](Cc2ccc(-c3c(C(F)(F)F)cc(=O)n(C)c3C)cc2)C(=O)O)c(F)c1)C(F)(F)F",
    "pEC50": 7.87
  },
  {
    "SMI": "Cc1cc(N2CCOC[C@@H]2C(F)(F)F)cc(F)c1C(=O)N[C@@H](Cc1ccc(-n2c(=O)c3c(n(C)c2=O)COC3)cc1)C(=O)O",
    "pEC50": 10.00
  }
]

Respond only with pEC50 recorded for Cc1cc(N2CCOC[C@@H]2CC(F)F)cc(F)c1C(=O)N[C@@H](Cc1ccc(-n2c(=O)c3ccncc3n(C)c2=O)nc1)C(=O)O 9.70

* * *

Consider the following molecules; for each one, report its pEC50.
- TARGET UNDER TEST: α4β7 integrin (Homo sapiens, UniProt P13612+P26010)
- Construct: monitoring the capture of α4β7 integrin expressing cells; endogenous in cells; host or cells: RPMI8866
- Sequence (P13612 34-1032): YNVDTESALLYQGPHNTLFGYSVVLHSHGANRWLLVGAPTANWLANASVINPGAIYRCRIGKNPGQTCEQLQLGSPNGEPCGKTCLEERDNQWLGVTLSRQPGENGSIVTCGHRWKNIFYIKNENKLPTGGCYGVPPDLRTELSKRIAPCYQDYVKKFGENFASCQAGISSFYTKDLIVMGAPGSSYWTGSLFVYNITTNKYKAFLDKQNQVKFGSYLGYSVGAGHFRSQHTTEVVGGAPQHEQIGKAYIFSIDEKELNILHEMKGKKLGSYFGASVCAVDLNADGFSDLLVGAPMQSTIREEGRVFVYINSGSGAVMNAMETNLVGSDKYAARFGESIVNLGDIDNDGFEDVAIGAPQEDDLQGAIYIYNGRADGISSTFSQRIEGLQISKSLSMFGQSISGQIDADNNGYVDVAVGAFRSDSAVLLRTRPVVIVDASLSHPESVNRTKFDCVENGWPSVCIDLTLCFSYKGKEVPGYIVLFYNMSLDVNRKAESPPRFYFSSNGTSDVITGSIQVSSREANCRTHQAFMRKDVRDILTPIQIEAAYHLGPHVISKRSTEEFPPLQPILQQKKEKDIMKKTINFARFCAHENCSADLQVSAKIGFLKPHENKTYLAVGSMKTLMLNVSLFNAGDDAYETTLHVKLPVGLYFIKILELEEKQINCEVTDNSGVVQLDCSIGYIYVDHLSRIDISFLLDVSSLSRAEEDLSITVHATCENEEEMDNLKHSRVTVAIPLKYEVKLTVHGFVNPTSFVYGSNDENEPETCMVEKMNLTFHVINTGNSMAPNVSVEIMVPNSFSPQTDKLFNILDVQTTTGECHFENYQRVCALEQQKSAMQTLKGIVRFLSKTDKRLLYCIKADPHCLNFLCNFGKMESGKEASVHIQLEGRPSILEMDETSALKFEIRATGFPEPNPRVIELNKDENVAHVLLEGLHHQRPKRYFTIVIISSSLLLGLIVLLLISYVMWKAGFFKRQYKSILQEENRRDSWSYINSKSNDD
- Sequence (P26010 20-798): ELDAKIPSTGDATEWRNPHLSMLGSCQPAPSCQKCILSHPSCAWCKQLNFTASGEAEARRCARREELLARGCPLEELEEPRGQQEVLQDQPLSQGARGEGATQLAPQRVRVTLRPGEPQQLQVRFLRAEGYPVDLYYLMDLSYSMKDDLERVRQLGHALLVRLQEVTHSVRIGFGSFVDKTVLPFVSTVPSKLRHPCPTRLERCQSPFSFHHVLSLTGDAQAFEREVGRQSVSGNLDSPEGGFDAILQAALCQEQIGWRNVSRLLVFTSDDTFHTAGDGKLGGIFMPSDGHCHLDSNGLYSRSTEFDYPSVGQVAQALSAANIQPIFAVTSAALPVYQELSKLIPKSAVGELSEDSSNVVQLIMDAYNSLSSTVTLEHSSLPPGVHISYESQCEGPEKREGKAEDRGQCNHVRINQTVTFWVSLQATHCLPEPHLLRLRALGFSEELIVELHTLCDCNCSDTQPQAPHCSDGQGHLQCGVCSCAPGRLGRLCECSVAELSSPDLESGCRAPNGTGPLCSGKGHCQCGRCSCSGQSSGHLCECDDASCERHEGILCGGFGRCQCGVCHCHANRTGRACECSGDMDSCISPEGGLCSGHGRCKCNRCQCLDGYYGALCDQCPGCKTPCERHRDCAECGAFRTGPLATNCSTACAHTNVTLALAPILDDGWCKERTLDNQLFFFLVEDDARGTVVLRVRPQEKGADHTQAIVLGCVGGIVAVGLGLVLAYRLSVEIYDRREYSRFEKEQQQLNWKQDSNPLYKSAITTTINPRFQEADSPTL
- METHOD NOTES: α4β7 Integrin Cell Capture Assay
- Assay type: cell-based
- RUN CONDITIONS: capture of α4β7 integrin expressing RPM18866 cells on MadCAM-1 extracellular domain-coated plate; Table 2
Answers are plain numbers, as −log10 of the molar value.

Some molecules with recorded pEC50:
[
  {
    "MOLECULE": "CC[C@@H](Nc1cc(F)c(C(=O)N[C@@H](Cc2ccc(-n3c(=O)c4cc(N(C)C)ccc4n(C)c3=O)cc2)C(=O)O)c(F)c1)C(F)(F)F",
    "pEC50": 8.60
  },
  {
    "MOLECULE": "CC[C@@H](Nc1cc(F)c(C(=O)N[C@@H](Cc2ccc(-c3c(C)n(C)c(=O)n(C)c3=O)cc2)C(=O)O)c(F)c1)C(F)(F)F",
    "pEC50": 8.92
  },
  {
    "MOLECULE": "CC[C@@H](Nc1cc(F)c(C(=O)N[C@@H](Cc2ccc(-c3c(C)c4cc(F)ccc4n(C)c3=O)nc2)C(=O)O)c(F)c1)C(F)(F)F",
    "pEC50": 8.54
  },
  {
    "MOLECULE": "Cc1cc(N2CCOC[C@@H]2C(F)(F)F)cc(F)c1C(=O)N[C@@H](Cc1ccc(-n2c(=O)c3ccncc3n(C)c2=O)c(OC(F)(F)F)c1)C(=O)O (atropisomer, axis not shown) [Example 93]",
    "pEC50": 9.40
  },
  {
    "MOLECULE": "Cn1c(=O)n(-c2c(F)cc(C[C@H](NC(=O)c3c(F)cc(N4CCOC[C@@H]4C(F)(F)F)cc3F)C(=O)O)cc2F)c(=O)c2ccncc21",
    "pEC50": 9.82
  }
]

Field: pEC50. Fill in for each record below.
1. Cc1cc(N2CCOC[C@@H]2C(F)(F)F)cc(F)c1C(=O)N[C@@H](Cc1ccc(-n2c(=O)c3ccncc3n(C)c2=O)c(C(F)(F)F)c1)C(=O)O (atropisomer, axis not shown) [Example 89]
2. CCOCc1cc(OC)c(-c2ccc(C[C@H](NC(=O)c3c(F)cc(N[C@H](c4ccccc4)C(F)(F)F)cc3F)C(=O)O)cc2)c(OC)c1

1: 9.22; 2: 8.14
